# experiment notes: Cell Viability - LYMP1-003 - Assay at 40 hr (AID 964); further: nearly all actives have a fitted effect of over 60% in size
# conditions: LYMP1-003 lymphoblastoid viability; series mostly up to 92.2 µM
Records with an inconclusive call do not appear. Active and inactive are the calls of the source. The call rests on the fitted dose curve; in most records, active means well fitted cell-killing curve with a large enough effect; inconclusive means small, poorly fitted or top-dose-only effect; inactive means flat fitted curve, though single readings scatter.
Pick from t for active, f for inactive when you respond.

{"molecule": "Nc1cccc2c(N)cccc12", "class name": "f"}
{"molecule": "CCCCC(CC)COC(=O)c1ccccc1C(=O)O (centres undefined)", "class name": "f"}
{"molecule": "Brc1ccccc1-c1ccccc1", "class name": "f"}

QUERY: Hi team, can someone confirm the assay call for Cc1ccc(O)cc1 ?
RESULT: f

QUERY: Hi team, can someone confirm the assay call for O=C(c1ccccc1)c1ccccc1 ?
RESULT: f

QUERY: Hi team, can someone confirm the assay call for C1=CC2C3C=CC(C3)C2C1 (centres undefined) ?
RESULT: f

QUERY: Hi team, can someone confirm the assay call for COc1cc(C=O)ccc1O ?
RESULT: f

QUERY: Hi team, can someone confirm the assay call for CC(C)(C)c1ccc(O)c(O)c1 ?
RESULT: t

QUERY: Hi team, can someone confirm the assay call for Cc1cc(C(C)(C)C)c(O)c(C(C)(C)C)c1 ?
RESULT: f

QUERY: Hi team, can someone confirm the assay call for CCCCCCCCCCCCCCCC[n+]1ccccc1 ?
RESULT: t

QUERY: Hi team, can someone confirm the assay call for CC(C)(c1ccc(O)cc1)c1ccc(O)cc1 ?
RESULT: f

QUERY: Hi team, can someone confirm the assay call for Oc1ccccc1 ?
RESULT: f

QUERY: Hi team, can someone confirm the assay call for c1ccc2occc2c1 ?
RESULT: f

QUERY: Hi team, can someone confirm the assay call for Nc1ccc(O)cc1 ?
RESULT: t

###

# Test system: MCC-26
# experiment notes: qHTS assay to identify novel small-molecules to repurpose for Merkel cell carcinoma treatment (AID 1296009); further: nearly all actives have a fitted effect of over 60% in size
# conditions: MCC and control cell lines, CellTiter-Glo viability, 72 h; series mostly up to 46 µM
Results filed as inconclusive are left out. Calls of active or inactive are those of the source. Calls come from the whole dose curve; as a rule, active = well fitted inhibition curve with a large enough effect; inconclusive = small, poorly fitted or top-dose-only effect; inactive = flat fitted curve, though single readings scatter.
Pick from yes (1) (active), no (0) (inactive) when you respond.

{"compound": "CCCC(=O)O[C@]1(C(=O)COC(=O)CC)CC[C@H]2[C@@H]3CCC4=CC(=O)CC[C@]4(C)[C@H]3[C@@H](O)C[C@@]21C", "class name": "no (0)"}
{"compound": "CCN1C(=O)c2ccccc2C1Nc1ccc(OCCN2CCCCC2)cc1 (configuration not stated)", "class name": "no (0)"}

QUERY: Hi team, can someone confirm the assay call for CCO[C@H](Cc1ccc(OCCc2ccc(OS(C)(=O)=O)cc2)cc1)C(=O)O ?
RESULT: no (0)

QUERY: Hi team, can someone confirm the assay call for COc1cc(C(=O)NC2CCCNC2)cc(OC)c1OC (configuration not stated) ?
RESULT: no (0)

QUERY: Hi team, can someone confirm the assay call for CCCCC(CC)CNC(=O)CC(C)OC(=O)CCC(=O)O (configuration not stated) ?
RESULT: no (0)

QUERY: Hi team, can someone confirm the assay call for O=C(c1cc(O)c(O)c(O)c1)c1ccc(O)c(O)c1O ?
RESULT: no (0)

QUERY: Hi team, can someone confirm the assay call for OCCc1ccccc1 ?
RESULT: no (0)

QUERY: Hi team, can someone confirm the assay call for O=C(O)c1ccc(OCCN2CCCCC2)cc1 ?
RESULT: no (0)

QUERY: Hi team, can someone confirm the assay call for CCOCCn1c(C2CCN(CCc3ccc(C(C)(C)C(=O)O)cc3)CC2)nc2ccccc21 ?
RESULT: no (0)

QUERY: Hi team, can someone confirm the assay call for O=C1NCCN1CCN1CCC(c2cn(-c3ccc(F)cc3)c3ccc(Cl)cc23)CC1 ?
RESULT: yes (1)

QUERY: Hi team, can someone confirm the assay call for CCN1CCN(C(=O)N[C@@H](C(=O)N[C@@H]2C(=O)N3[C@@H]2SC(C)(C)[C@H]3C(=O)O)c2ccccc2)C(=O)C1=O ?
RESULT: no (0)

QUERY: Hi team, can someone confirm the assay call for Cc1ccc(C(=O)Oc2ccc(C(O)CNC(C)(C)C)cc2OC(=O)c2ccc(C)cc2)cc1 (configuration not stated) ?
RESULT: no (0)

QUERY: Hi team, can someone confirm the assay call for COC(=O)C1=C(C)NC(COC(N)=O)=C(C(=O)OC(C)C)C1c1cccc(Cl)c1Cl (configuration not stated) ?
RESULT: no (0)

QUERY: Hi team, can someone confirm the assay call for CCCCC(O)/C=C(C)/C=C/C=C/C(=O)N1CCCC1=O (configuration not stated) ?
RESULT: no (0)

QUERY: Hi team, can someone confirm the assay call for CCn1ccc(NS(=O)(=O)c2ccc(N)cc2)nc1=O ?
RESULT: no (0)

QUERY: Hi team, can someone confirm the assay call for COc1ccc(OC(=O)N(CC(=O)O)Cc2ccc(OCCc3nc(-c4ccccc4)oc3C)cc2)cc1 ?
RESULT: no (0)
